- method: Phase solubility studies with HP-β-CD
- Assay type: physicochemical
- condition info: aqueous buffer solutions; 25 °C, pH 3.6 to 8.5; read-out: solubility, increasing trend with increasing pH
observation type: solubility at 60 min

Q. Entry under review: COc1ccc(C2C/C(=N\NC(=O)c3ccncc3)c3c(O)cc(O)cc3O2)cc1O (racemic) . Reported solubility at 60 min?
A. 17 to 90 µM

* * *

- method: Phase solubility studies with HP-β-CD
- Assay type: physicochemical
- condition info: 60 °C, pH 6.5, with HP-β-CD
observation type: CE complexation efficiency (%)
Return type: number; implicit unit %.

{"columns": ["molecule", "CE complexation efficiency (%)"],
 "data": [
  ["COc1ccc(C2C/C(=N\\NC(=O)c3ccccc3)c3c(O)cc(O)cc3O2)cc1O (racemic) [HHSB]", 1.8],
  ["COc1ccc(C2CC(=NNC(N)=S)c3c(O)cc(O)cc3O2)cc1O (stereo not shown) [HTSC]", 0.04],
  ["COc1ccc(C2C/C(=N\\NC(=O)c3ccncc3)c3c(O)cc(O)cc3O2)cc1O (racemic) [HIN]", 0.3]
]}

Turning now to a further record.
Q. Entry under review: COc1ccc(C2CC(=O)c3c(O)cc(O)cc3O2)cc1O (stereo not shown) [Hesperetin, 3′,5,7-Trihydroxy-4′-methoxyflavanone] . Reported CE complexation efficiency?
A. 11

* * *

- method: Phase solubility studies with HP-β-CD
- Assay type: physicochemical
- condition info: aqueous buffer, thermodynamic from solid; 25 °C, pH 6.5 sodium phosphate buffer, without cyclodextrin; read-out: solubility without HP-β-CD (value in brackets) (converted)
observation type: solubility at 60 min (µM)
Return type: number; implicit unit µM.

{"columns": ["compound", "observation type", "measured"],
 "data": [
  ["COc1ccc(C2C/C(=N\\NC(=O)c3ccccc3)c3c(O)cc(O)cc3O2)cc1O (racemic)", "solubility at 60 min", 25],
  ["COc1ccc(C2C/C(=N\\NC(=O)c3ccncc3)c3c(O)cc(O)cc3O2)cc1O (racemic)", "solubility at 60 min", 17],
  ["COc1ccc(C2CC(=O)c3c(O)cc(O)cc3O2)cc1O (stereo not shown) [Hesperetin, 3′,5,7-Trihydroxy-4′-methoxyflavanone]", "solubility at 60 min", 49]
]}

Turning now to a further record.
Q. Entry under review: COc1ccc(C2CC(=NNC(N)=S)c3c(O)cc(O)cc3O2)cc1O (stereo not shown) . Reported solubility at 60 min?
A. 11

* * *

Documented solubility at 60 min across a set of molecules
- method: Phase solubility studies with HP-β-CD
- Type: physicochemical
- condition info: thermodynamic from solid; 25 °C, pH 3.6 sodium acetate buffer, with HP-β-CD; read-out: S0 (solubility with HP-β-CD)
- Experimental: The purpose of this part of the study was to determine the solubility of compounds of hesperetin and its Schiff bases (HHSB, HIN, and HTSC) in aqueous solution at different pHs and temperatures, and the effect of their inclusion in modified HP-β-CD on the aqueous solubility of these compounds at different pH values. […] Complexation efficiency was calculated from the slope of the phase solubility diagram using Equation (2):(2) CE=S0×Kc=slope/1−slope […]
Return type: number; implicit unit µM.

Please review the entries below; each comes with its answer.
{"columns": ["molecule", "observation type", "measured"],
 "data": [
  ["COc1ccc(C2CC(=O)c3c(O)cc(O)cc3O2)cc1O (stereo not shown) [Hesperetin, 3′,5,7-Trihydroxy-4′-methoxyflavanone]", "solubility at 60 min", 108],
  ["COc1ccc(C2C/C(=N\\NC(=O)c3ccccc3)c3c(O)cc(O)cc3O2)cc1O (racemic) [HHSB]", "solubility at 60 min", 41],
  ["COc1ccc(C2C/C(=N\\NC(=O)c3ccncc3)c3c(O)cc(O)cc3O2)cc1O (racemic) [HIN]", "solubility at 60 min", 68]
]}

Turning now to a further record.
Q. Entry under review: COc1ccc(C2CC(=NNC(N)=S)c3c(O)cc(O)cc3O2)cc1O (stereo not shown) [HTSC] . Reported solubility at 60 min?
A. 54

* * *

Documented Kc complexation constant across a set of compounds
- method: Phase solubility studies with HP-β-CD
- Type: physicochemical
- condition info: 25 °C, pH 3.6, with HP-β-CD
Return type: number; implicit unit M⁻¹.

Please review the entries below; each comes with its answer.
{"columns": ["compound", "Kc complexation constant, M⁻¹"],
 "data": [
  ["COc1ccc(C2C/C(=N\\NC(=O)c3ccccc3)c3c(O)cc(O)cc3O2)cc1O (racemic)", 341],
  ["COc1ccc(C2CC(=O)c3c(O)cc(O)cc3O2)cc1O (stereo not shown) [Hesperetin, 3′,5,7-Trihydroxy-4′-methoxyflavanone]", 3221],
  ["COc1ccc(C2C/C(=N\\NC(=O)c3ccncc3)c3c(O)cc(O)cc3O2)cc1O (racemic)", 102]
]}

Turning now to a further record.
Q. Entry under review: COc1ccc(C2CC(=NNC(N)=S)c3c(O)cc(O)cc3O2)cc1O (stereo not shown) . Reported Kc complexation constant?
A. 13

* * *

- method: Phase solubility studies with HP-β-CD
- Type: physicochemical
- condition info: aqueous buffer, thermodynamic from solid; 60 °C, pH 3.6 sodium acetate buffer, without cyclodextrin; read-out: solubility without HP-β-CD (value in brackets) (converted)
Documented solubility at 60 min across a set of compounds
Return type: number; implicit unit µM.

Please review the entries below; each comes with its answer.
{"columns": ["compound", "units text", "solubility at 60 min"],
 "data": [
  ["COc1ccc(C2C/C(=N\\NC(=O)c3ccncc3)c3c(O)cc(O)cc3O2)cc1O (racemic)", "µM", 8],
  ["COc1ccc(C2C/C(=N\\NC(=O)c3ccccc3)c3c(O)cc(O)cc3O2)cc1O (racemic)", "µM", 12]
]}

Q. Entry under review: COc1ccc(C2CC(=NNC(N)=S)c3c(O)cc(O)cc3O2)cc1O (stereo not shown) . Reported solubility at 60 min?
A. 37

Q. Entry under review: COc1ccc(C2CC(=O)c3c(O)cc(O)cc3O2)cc1O (stereo not shown) [Hesperetin, 3′,5,7-Trihydroxy-4′-methoxyflavanone] . Reported solubility at 60 min?
A. 95

* * *

- method: Phase solubility studies with HP-β-CD
- Type: physicochemical
- condition info: 37 °C, pH 6.5, with HP-β-CD
observation type: Kc complexation constant (M⁻¹)
Return type: number; implicit unit M⁻¹.

Please review the entries below; each comes with its answer.
{"columns": ["molecule", "measured"],
 "data": [
  ["COc1ccc(C2C/C(=N\\NC(=O)c3ccccc3)c3c(O)cc(O)cc3O2)cc1O (racemic) [HHSB]", 618],
  ["COc1ccc(C2CC(=NNC(N)=S)c3c(O)cc(O)cc3O2)cc1O (stereo not shown) [HTSC]", 16],
  ["COc1ccc(C2CC(=O)c3c(O)cc(O)cc3O2)cc1O (stereo not shown) [Hesperetin, 3′,5,7-Trihydroxy-4′-methoxyflavanone]", 2280]
]}

Turning now to a further record.
Q. Entry under review: COc1ccc(C2C/C(=N\NC(=O)c3ccncc3)c3c(O)cc(O)cc3O2)cc1O (racemic) [HIN] . Reported Kc complexation constant?
A. 25

* * *

- method: Phase solubility studies with HP-β-CD
- Assay type: physicochemical
- condition info: 37 °C, pH 6.5, with HP-β-CD
Documented CE complexation efficiency across a set of compounds
Return type: number; implicit unit %.

Please review the entries below; each comes with its answer.
{"columns": ["compound", "observation type", "measured"],
 "data": [
  ["COc1ccc(C2C/C(=N\\NC(=O)c3ccccc3)c3c(O)cc(O)cc3O2)cc1O (racemic)", "CE complexation efficiency", 2.5],
  ["COc1ccc(C2CC(=O)c3c(O)cc(O)cc3O2)cc1O (stereo not shown) [Hesperetin, 3′,5,7-Trihydroxy-4′-methoxyflavanone]", "CE complexation efficiency", 25],
  ["COc1ccc(C2CC(=NNC(N)=S)c3c(O)cc(O)cc3O2)cc1O (stereo not shown)", "CE complexation efficiency", 0.1]
]}

Turning now to a further record.
Q. Entry under review: COc1ccc(C2C/C(=N\NC(=O)c3ccncc3)c3c(O)cc(O)cc3O2)cc1O (racemic) . Reported CE complexation efficiency?
A. 0.04

* * *

- method: Phase solubility studies with HP-β-CD
- Format: physicochemical
- condition info: 60 °C, pH 3.6, with HP-β-CD
observation type: CE complexation efficiency (%)
Return type: number; implicit unit %.

{"columns": ["compound", "observation type", "measured"],
 "data": [
  ["COc1ccc(C2C/C(=N\\NC(=O)c3ccncc3)c3c(O)cc(O)cc3O2)cc1O (racemic)", "CE complexation efficiency", 0.3],
  ["COc1ccc(C2C/C(=N\\NC(=O)c3ccccc3)c3c(O)cc(O)cc3O2)cc1O (racemic)", "CE complexation efficiency", 0.9],
  ["COc1ccc(C2CC(=O)c3c(O)cc(O)cc3O2)cc1O (stereo not shown) [Hesperetin, 3′,5,7-Trihydroxy-4′-methoxyflavanone]", "CE complexation efficiency", 34]
]}

Turning now to a further record.
Q. Entry under review: COc1ccc(C2CC(=NNC(N)=S)c3c(O)cc(O)cc3O2)cc1O (stereo not shown) . Reported CE complexation efficiency?
A. 0.5
